# system.under.test: Estrogen receptor (Homo sapiens)
# Sequence (P03372 whole entry): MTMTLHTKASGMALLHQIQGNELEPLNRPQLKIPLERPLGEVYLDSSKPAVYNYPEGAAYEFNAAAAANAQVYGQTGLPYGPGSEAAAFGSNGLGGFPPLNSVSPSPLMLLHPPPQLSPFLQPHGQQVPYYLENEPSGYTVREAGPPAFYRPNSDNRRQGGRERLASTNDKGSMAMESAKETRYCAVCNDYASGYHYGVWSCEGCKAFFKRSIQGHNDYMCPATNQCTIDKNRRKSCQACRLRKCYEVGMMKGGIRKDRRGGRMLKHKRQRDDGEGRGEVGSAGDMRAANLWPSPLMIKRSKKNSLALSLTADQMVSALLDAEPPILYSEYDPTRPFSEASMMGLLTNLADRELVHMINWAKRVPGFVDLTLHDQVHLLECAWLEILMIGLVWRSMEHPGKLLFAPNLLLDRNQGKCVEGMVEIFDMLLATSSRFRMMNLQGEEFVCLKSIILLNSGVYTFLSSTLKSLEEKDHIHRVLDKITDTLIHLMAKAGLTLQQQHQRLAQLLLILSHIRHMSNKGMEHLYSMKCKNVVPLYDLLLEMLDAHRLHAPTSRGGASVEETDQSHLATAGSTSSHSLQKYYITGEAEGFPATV
# assay.overview: Antagonist activity at human ERalpha expressed in HEK293T cells after 24 hrs by ERE-based dual luciferase reporter gene assay
pIC50: −log10 of the molar value.
Answer False if pIC50 is under 6, and True if it is 6 or more.

[[record]]
compound = "O=S(=O)(Oc1ccc(O)cc1)C1CC2OC1C(c1ccc(/C=C/c3cc(O)cc(O)c3)cc1)=C2c1ccc(O)cc1 (stereo not drawn)"
system_under_test = "Estrogen receptor (Homo sapiens)"
label = "True"

[[record]]
compound = "O=S(=O)(Oc1cccc(Br)c1)C1CC2OC1C(c1ccc(/C=C/c3cc(O)cc(O)c3)cc1)=C2c1ccc(O)cc1 (stereo not drawn)"
system_under_test = "Estrogen receptor (Homo sapiens)"
label = "False"

[[record]]
compound = "O=S(=O)(Oc1ccccc1)C1CC2OC1C(c1ccc(/C=C/c3cc(O)cc(O)c3)cc1)=C2c1ccc(O)cc1 (stereo not drawn)"
system_under_test = "Estrogen receptor (Homo sapiens)"
label = "True"

[[record]]
compound = "O=S(=O)(Oc1ccc(F)cc1)C1CC2OC1C(c1ccc(/C=C/c3cc(O)cc(O)c3)cc1)=C2c1ccc(O)cc1 (stereo not drawn)"
system_under_test = "Estrogen receptor (Homo sapiens)"
label = "True"

[[record]]
compound = "Cc1ccccc1OS(=O)(=O)C1CC2OC1C(c1ccc(/C=C/c3cc(O)cc(O)c3)cc1)=C2c1ccc(O)cc1 (stereo not drawn)"
system_under_test = "Estrogen receptor (Homo sapiens)"
label = "True"


* * *

# system.under.test: Estrogen receptor beta (Homo sapiens, UniProt Q92731)
# Sequence (Q92731 whole entry): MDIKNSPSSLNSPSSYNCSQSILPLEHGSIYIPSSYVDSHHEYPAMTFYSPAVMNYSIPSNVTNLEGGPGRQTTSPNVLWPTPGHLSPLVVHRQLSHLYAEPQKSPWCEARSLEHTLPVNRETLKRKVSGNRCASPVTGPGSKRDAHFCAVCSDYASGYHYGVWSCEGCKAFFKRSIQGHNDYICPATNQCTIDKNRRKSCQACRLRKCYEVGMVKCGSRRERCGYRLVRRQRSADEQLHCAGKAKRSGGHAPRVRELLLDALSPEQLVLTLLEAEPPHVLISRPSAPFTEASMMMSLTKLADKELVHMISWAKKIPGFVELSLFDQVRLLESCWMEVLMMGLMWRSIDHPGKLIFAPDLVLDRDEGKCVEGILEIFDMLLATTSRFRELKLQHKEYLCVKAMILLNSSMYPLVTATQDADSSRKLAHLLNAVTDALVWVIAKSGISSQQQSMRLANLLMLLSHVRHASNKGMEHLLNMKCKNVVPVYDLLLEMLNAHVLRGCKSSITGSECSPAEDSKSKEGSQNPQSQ
# assay.overview: Agonist activity at human ERbeta expressed in HEK293T cells after 24 hrs by ERE-based dual luciferase reporter gene assay relative to E2
# Format: cell-based
measurement.type: Efficacy (%)

[[record]]
compound = "O=S(=O)(Oc1ccc(Br)cc1)C1CC2OC1C(c1ccc(/C=C/c3cc(O)cc(O)c3)cc1)=C2c1ccc(O)cc1 (configuration not stated)"
units_of_measure = "%"
readout_number = 10

[[record]]
compound = "COc1cc(/C=C/c2ccc(OS(=O)(=O)C3CC4OC3C(c3ccc(O)cc3)=C4c3ccc(O)cc3)cc2)cc(OC)c1 (configuration not stated)"
units_of_measure = "%"
readout_number = 23

[[record]]
compound = "O=S(=O)(Oc1ccccc1Cl)C1CC2OC1C(c1ccc(/C=C/c3cc(O)cc(O)c3)cc1)=C2c1ccc(O)cc1 (configuration not stated)"
units_of_measure = "%"
readout_number = 25

[[record]]
compound = "O=S(=O)(Oc1ccc(/C=C/c2cc(O)cc(O)c2)cc1)C1CC2OC1C(c1ccc(O)cc1)=C2c1ccc(O)cc1 (configuration not stated)"
units_of_measure = "%"
readout_number = 51

[[record]]
compound = "O=S(=O)(Oc1cccc(C(F)(F)F)c1)C1CC2OC1C(c1ccc(/C=C/c3cc(O)cc(O)c3)cc1)=C2c1ccc(O)cc1 (configuration not stated)"
units_of_measure = "%"
readout_number = 29

[[record]]
compound = "O=S(=O)(Oc1ccc(Cl)cc1)C1CC2OC1C(c1ccc(/C=C/c3cc(O)cc(O)c3)cc1)=C2c1ccc(O)cc1 (configuration not stated)"
units_of_measure = "%"
readout_number = 7

[[record]]
compound = "O=S(=O)(Oc1ccccc1)C1CC2OC1C(c1ccc(/C=C/c3ccccc3)cc1)=C2c1ccc(O)cc1 (configuration not stated)"
units_of_measure = "%"
readout_number = 48

